Tested on: Colletotrichum acutatum
Experiment: Antifungal activity against Colletotrichum acutatum assessed as inhibition of pore appressorial formation at 25 degC measured after 4 to 24 hr
Assay type: functional
Quick list: MID per entry.
PROPERTY_MEASURED: MID (uL/L)

- CCC/C=C/C=O: 1.35
- CCCCCC=O: 6.76
- CCC/C=C/COC(C)=O: 135.13
- CCCCCCO: 33.78
- CCC/C=C/CO: 33.78
- CC/C=C\CCO [CIS-3-HEXENOL]: 135.13
- CCCCCCOC(C)=O [HEXYL ACETATE]: 337.84
- CC/C=C\CCOC(C)=O [(Z)-hex-3-en-1-yl acetate]: 135.13

src = ChEMBL document CHEMBL3045505
